meta.source: ChEMBL document CHEMBL1153869

Tested on: Candida albicans
MIC by entry:
measurementKind: MIC

{"molecule": "C[N+](C)(CCCNC(=O)CCCCCCCCCCS)Cc1ccccc1", "measurementKind": "MIC", "result": "> 1060 µM"}
{"molecule": "CCCCCCCCCCCCCC[N+](C)(C)CCCNC(=O)CCCCCCCCCCS", "measurementKind": "MIC", "result": "> 742 µM"}
{"molecule": "C[N+](C)(C)CCCNC(=O)CCCCCCCCCCS", "measurementKind": "MIC", "result": "> 1070 µM"}
{"molecule": "CCCCCCCCCC[N+](C)(C)CCCNC(=O)CCCCCCCCCCS", "measurementKind": "MIC", "result": "> 677 µM"}
{"molecule": "CCCCCCCCCCCC[N+](C)(C)CCCNC(=O)CCCCCCCCCCS", "measurementKind": "MIC", "result": "> 688 µM"}
